# Tested on: T-Rex 293 cell line SC3 cells lacking increased expression of androgen receptor protein
# ASSAY_TEXT: Cellular growth inhibition, T-Rex 293 SC3 cells without doxycycline, CellTiter-Glo
# Type: cell-based
# CONDITION_NOTES: 72 h, T-Rex 293 SC3 cells not exposed to doxycycline, CellTiter-Glo 2.0
Can you tell me GI50 for the items I'm about to list?

Query block: Entry under review: Cc1sc2c(c1C)C(c1ccc(NCC3CCN(c4ncc(C(=O)N[C@H]5C(C)(C)[C@H](Oc6ccc(C#N)c(Cl)c6)C5(C)C)cn4)C3)cc1)=NC(Cc1ncco1)c1nnc(C)n1-2 (stereo partly drawn) . Reported GI50?
Result block: < 500 nM

Query block: Item: Cc1sc2c(c1C)C(c1ccc(N3CC(CC4CN(c5ncc(C(=O)N[C@H]6C(C)(C)[C@H](Oc7ccc(C#N)c(Cl)c7)C6(C)C)cn5)C4)C3)cc1)=N[C@@H](C)c1nnc(C)n1-2
Result block: > 3000 nM

Query block: Again, but for Cc1sc2c(c1C)C(c1ccc([C@@H]3CC[C@@]4(C3)CN(c3ncc(C(=O)N[C@H]5C(C)(C)[C@H](Oc6ccc(C#N)c(Cl)c6)C5(C)C)cn3)CCO4)cc1)=N[C@@H](Cc1ncco1)c1nnc(C)n1-2
Result block: > 3000 nM

Query block: Quick one: COCC[C@@H]1N=C(c2ccc(CC3CC4(CCN(c5ncc(C(=O)N[C@H]6C(C)(C)[C@H](Oc7ccc(C#N)c(Cl)c7)C6(C)C)cn5)CC4)C3)cc2)c2c(sc(C)c2C)-n2c(C)nnc21
Result block: > 3000 nM

Query block: Next up: Cc1sc2c(c1C)C(c1ccc(C[C@H]3C[C@@H]([C@@H]4CCCN(c5ncc(C(=O)N[C@H]6C(C)(C)[C@H](Oc7ccc(C#N)c(Cl)c7)C6(C)C)cn5)C4)C3)cc1)=N[C@@H](Cc1ncco1)c1nnc(C)n1-2
Result block: 500 to 1500 nM

Query block: And the next one, Cc1sc2c(c1C)C(c1ccc(N3CC(C4CCN(c5ncc(C(=O)N[C@H]6C(C)(C)[C@H](Oc7ccc(C#N)c(Cl)c7)C6(C)C)cn5)CC4)C3)cc1)=N[C@@H](C)c1nnc(C)n1-2 ?
Result block: > 3000 nM

Query block: One more molecule: Cc1sc2c(c1C)C(c1ccc(C(=O)N3CCC(N(C)c4ncc(C(=O)N[C@H]5C(C)(C)[C@H](Oc6ccc(C#N)c(Cl)c6)C5(C)C)cn4)CC3)cc1)=N[C@H](Cc1ncco1)c1nnc(C)n1-2
Result block: > 3000 nM

Query block: Consider next the molecule Cc1sc2c(c1C)C(c1ccc(-c3cc(C4CCN(c5ncc(C(=O)N[C@H]6C(C)(C)[C@H](Oc7ccc(C#N)c(Cl)c7)C6(C)C)cn5)CC4)on3)cc1)=N[C@@H](Cc1ncco1)c1nnc(C)n1-2 in the same way.
Result block: > 3000 nM

Query block: Could you do the same for Cc1sc2c(c1C)C(c1ccc(COC3CCN(c4ncc(C(=O)N[C@H]5C(C)(C)[C@H](Oc6ccc(C#N)c(Cl)c6)C5(C)C)cn4)CC3)cc1)=N[C@@H](C)c1nnc(C)n1-2 , please?
Result block: > 3000 nM

Query block: Next record, please: CC[C@@H]1N=C(c2ccc(CC3CC4(CCN(c5ccc(C(=O)N[C@H]6C(C)(C)[C@H](Oc7ccc(C#N)c(Cl)c7)C6(C)C)cn5)CC4)C3)cc2)c2c(sc(C)c2C)-n2c(C)nnc21
Result block: > 3000 nM

Query block: Entry Cc1sc2c(c1C)C(c1ccc(Cl)cc1)=N[C@@H](CC(=O)NCCOCCOCCOC1CCCN(c3ncc(C(=O)N[C@H]4C(C)(C)[C@H](Oc5ccc(C#N)c(Cl)c5)C4(C)C)cn3)C1)c1nnc(C)n1-2 (stereo partly drawn) please
Result block: 1500 to 3000 nM

Query block: // same read-out, input: Cc1sc2c(c1C)C(c1ccc(CCCOC3CCN(c4ncc(C(=O)N[C@H]5C(C)(C)[C@H](Oc6ccc(C#N)c(Cl)c6)C5(C)C)cn4)CC3)cc1)=N[C@@H](Cc1cccnc1)c1nnc(C)n1-2
Result block: < 500 nM

Query block: Thanks! And Cc1sc2c(c1C)C(c1ccc([C@H]3C[C@@H]([C@H]4CCCN(c5ncc(C(=O)N[C@H]6C(C)(C)[C@H](Oc7ccc(C#N)c(Cl)c7)C6(C)C)cn5)C4)C3)cc1)=N[C@@H](Cc1ncco1)c1nnc(C)n1-2 ?
Result block: > 3000 nM

Query block: Would you kindly repeat that for CCNC(=O)C[C@@H]1N=C(c2ccc(CCCCCOC3CCN(c4ncc(C(=O)N[C@H]5C(C)(C)[C@H](Oc6ccc(C#N)c(Cl)c6)C5(C)C)cn4)CC3)cc2)c2c(sc(C)c2C)-n2c(C)nnc21 ?
Result block: 500 to 1500 nM

Query block: Try COCC[C@@H]1N=C(c2ccc(N3CC(CC4CCN(c5cnc(C(=O)N[C@H]6C(C)(C)[C@H](Oc7ccc(C#N)c(Cl)c7)C6(C)C)cn5)CC4)C3)cc2)c2c(sc(C)c2C)-n2c(C)nnc21 next.
Result block: < 500 nM

Query block: Note, next up: Cc1sc2c(c1C)C(c1ccc(O[C@H]3C[C@@]4(CCCN(c5ncc(C(=O)N[C@H]6C(C)(C)[C@H](Oc7ccc(C#N)c(Cl)c7)C6(C)C)cn5)C4)C3)cc1)=N[C@@H](C)c1nnc(C)n1-2
Result block: > 3000 nM

Query block: Same question for Cc1sc2c(c1C)C(c1ccc(CCCOC3CCN(c4ncc(C(=O)N[C@H]5C(C)(C)[C@H](Oc6ccc(C#N)c(Cl)c6)C5(C)C)cn4)CC3)cc1)=N[C@@H](Cc1ccncc1)c1nnc(C)n1-2 please.
Result block: < 500 nM

Query block: Please answer likewise for Cc1sc2c(c1C)C(c1ccc([C@H]3C[C@@H]([C@H]4CCN(c5ncc(C(=O)N[C@H]6C(C)(C)[C@H](Oc7ccc(C#N)c(Cl)c7)C6(C)C)cn5)C4)C3)cc1)=N[C@H](Cc1ncco1)c1nnc(C)n1-2
Result block: < 500 nM

Source of measurements: patent US20260062422A1
